Would you kindly list abundance fitness for each of these variants?
B1: CD2-associated protein, residues 271 to 331; numbered along this chain, Q9Y5K6 (parent)
chain: KEYCRTLFAYEGTNEDELTFKEGEIIHLISKETGEAGWWRGELNGKEGVFPDNFAVQINEL

# Variants of: B1
# Test Name: abundance fitness (aPCA) (normalised: wild type 0, dead -1); higher = more abundant; growth selection in yeast, the domain comes from the species named
# Condition Details: Homo sapiens
Answers are plain numbers.

G23L | -0.941

Provide the reported abundance fitness of each entry below, same order.
1. F8R
2. D52N
3. L7A
4. G23A

0.12
0.008
-0.275
-0.727

// provenance: the Human Domainome abundance scans (Beltran et al. 2025)
